src = ChEMBL document CHEMBL5126589

Entries and their measured IC50 follow.
assay: Inhibition of PU.1 binding to biotin labeled lambdaB DNA (unknown origin) by sensor chip immobilization based surface plasmon resonance analysis
Readout: IC50 (nM)

N=C(N)c1ccc(-c2ccc(-c3cc4ccc(C(=N)N)cc4[nH]3)s2)cc1 23
N=C(N)c1ccc(-c2ccc(-c3nc4ccc(C(=N)N)cc4[nH]3)s2)cc1 9

----------
experiment: Binding affinity to biotin labeled hairpin DNA 5'-GAATTC-3' (unknown origin) assessed as equilibrium dissociation constant by sensor chip immobilization based surface plasmon resonance analysis
Entries and their measured Kd follow.
Readout: Kd (nM)

Compound	Readout	Unit Descriptor	Reported Value
N=C(N)c1ccc(-c2ccc(-c3nc4ccc(C(=N)N)cc4[nH]3)s2)cc1	Kd	nM	1.5
N=C(N)c1ccc(-c2ccc(-c3cc4ccc(C(=N)N)cc4[nH]3)s2)cc1	Kd	nM	6.5
N=C(N)c1ccc(-c2ccc(-c3ccc(C(=N)N)cc3)o2)cc1 [FURAMIDINE]	Kd	nM	140
